Target: Mitogen-activated protein kinase kinase kinase 11 (Homo sapiens, UniProt Q16584)
Sequence (Q16584 whole entry): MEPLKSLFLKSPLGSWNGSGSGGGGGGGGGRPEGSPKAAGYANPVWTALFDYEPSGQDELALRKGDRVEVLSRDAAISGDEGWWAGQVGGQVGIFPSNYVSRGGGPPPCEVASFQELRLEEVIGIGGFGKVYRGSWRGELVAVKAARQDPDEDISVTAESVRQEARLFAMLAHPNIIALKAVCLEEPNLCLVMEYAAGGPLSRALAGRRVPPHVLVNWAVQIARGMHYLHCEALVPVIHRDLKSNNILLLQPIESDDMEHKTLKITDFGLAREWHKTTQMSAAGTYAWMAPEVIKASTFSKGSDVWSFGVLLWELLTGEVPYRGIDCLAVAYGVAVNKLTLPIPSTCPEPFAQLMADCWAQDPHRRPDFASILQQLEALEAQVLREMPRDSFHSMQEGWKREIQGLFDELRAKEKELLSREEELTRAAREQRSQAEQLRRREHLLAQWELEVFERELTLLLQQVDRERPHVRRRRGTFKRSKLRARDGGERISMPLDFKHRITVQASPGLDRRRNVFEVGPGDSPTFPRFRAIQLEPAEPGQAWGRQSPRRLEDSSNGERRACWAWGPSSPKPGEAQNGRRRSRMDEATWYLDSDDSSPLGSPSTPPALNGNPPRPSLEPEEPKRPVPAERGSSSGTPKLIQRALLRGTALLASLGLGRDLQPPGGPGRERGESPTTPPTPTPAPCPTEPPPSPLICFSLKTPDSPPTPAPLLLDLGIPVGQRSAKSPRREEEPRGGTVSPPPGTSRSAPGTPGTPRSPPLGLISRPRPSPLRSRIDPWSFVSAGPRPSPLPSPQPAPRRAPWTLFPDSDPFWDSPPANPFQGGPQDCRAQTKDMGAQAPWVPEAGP
Assay: Radiometric Filter Plate MLK3 Assay: 200 ng (130 nM) MLK3 (Dundee, DU8313) was incubated with 1 μM inactive MKK7b (Dundee, DU703) in the presence of 2 μM cold ATP (Km) and 0.5 μCi/assay 33P ATP and appropriate concentrations of compounds. After a twenty minute incubation, the reactions were washed through filter plates and read on a scintillation counter.
pIC50: −log10 of the molar value.
Below, each entry is listed with its recorded pIC50.

c1cn(Cc2ccc(-c3cnc4[nH]cc(-c5ccc6[nH]ccc6c5)c4c3)cc2)cn1 | > 7.00

We next turn to a different compound, shown below.
Give the reported pIC50 for CN1CCN(Cc2ccc(-c3cnc4[nH]cc(-c5cnc6[nH]ccc6c5)c4c3)cc2)CC1 (system: Mitogen-activated protein kinase kinase kinase 11 (Homo sapiens, UniProt Q16584)).
> 7.00
